- Tested on: 519858-162-T-J1-PDC complex spheroid growth, % test/control
- PROTOCOL_TEXT: Anticancer human tumor 519858-162-T-J1-PDC patient-derived colon adenocarcinoma cell line growth inhibition [Asc]
- CONDITION: second compound 1 µM; first compound 0.0316 µM; active compounds read low
- Text: Multicellular complex tumor spheroid response to apoptosis pathway targeting inhibitors Alrizomadlin, Pelcitoclax, and Dasminapant in combination with a variety of drugs and investigational agents in selected tumor cell lines […] Compounds. […] If the clinical Cmax for an agent had not been determined, the highest concentration tested was 10 microM. […]
# YES = viability, T/C below 70% (exclusive); NO = viability, T/C at/above 70%

[[record]]
compound = "O=C(c1ccc(F)c(F)c1Nc1ccc(I)cc1F)N1CC(O)([C@@H]2CCCCN2)C1 + Cc1c(S(C)(=O)=O)c(-c2cc(F)cc(N3CCN(c4ccc(NS(=O)(=O)c5ccc(NC(CCN6CCC(C(=O)OCCCP(=O)(O)O)CC6)CSc6ccccc6)c(S(=O)(=O)C(F)(F)F)c5)cc4)CC3)c2)c(-c2ccc(Cl)cc2)n1C(C)C"
assay_target = "519858-162-T-J1-PDC complex spheroid growth, % test/control"
class = "NO"

[[record]]
compound = "C=CC(=O)N1CCN(c2nc(=O)n(-c3c(C)ccnc3C(C)C)c3nc(-c4c(O)cccc4F)c(F)cc23)C(C)C1 (stereo not given) + CNC(C)C(=O)NC1CN(S(=O)(=O)c2cccc(S(=O)(=O)N3CCC4CCC(C(=O)NC(c5ccccc5)c5ccccc5)N4C(=O)C(NC(=O)C(C)NC)C3)c2)CCC2CCC(C(=O)NC(c3ccccc3)c3ccccc3)N2C1=O"
assay_target = "519858-162-T-J1-PDC complex spheroid growth, % test/control"
class = "NO"

[[record]]
compound = "C#Cc1c(F)ccc2cc(O)cc(-c3ncc4c(N5CC6CCC(C5)N6)nc(OCC56CCCN5CC(F)C6)nc4c3F)c12 (stereo not given) + CNC(C)C(=O)NC1CN(S(=O)(=O)c2cccc(S(=O)(=O)N3CCC4CCC(C(=O)NC(c5ccccc5)c5ccccc5)N4C(=O)C(NC(=O)C(C)NC)C3)c2)CCC2CCC(C(=O)NC(c3ccccc3)c3ccccc3)N2C1=O"
assay_target = "519858-162-T-J1-PDC complex spheroid growth, % test/control"
class = "NO"

[[record]]
compound = "C=CC(=O)N1CCN(c2nc(=O)n(-c3c(C)ccnc3C(C)C)c3nc(-c4c(O)cccc4F)c(F)cc23)C(C)C1 (stereo not given) + Cc1c(S(C)(=O)=O)c(-c2cc(F)cc(N3CCN(c4ccc(NS(=O)(=O)c5ccc(NC(CCN6CCC(C(=O)OCCCP(=O)(O)O)CC6)CSc6ccccc6)c(S(=O)(=O)C(F)(F)F)c5)cc4)CC3)c2)c(-c2ccc(Cl)cc2)n1C(C)C"
assay_target = "519858-162-T-J1-PDC complex spheroid growth, % test/control"
class = "YES"

[[record]]
compound = "NC1CCC(NC2CC2c2ccccc2)CC1 (stereo not given) + Cc1c(S(C)(=O)=O)c(-c2cc(F)cc(N3CCN(c4ccc(NS(=O)(=O)c5ccc(NC(CCN6CCC(C(=O)OCCCP(=O)(O)O)CC6)CSc6ccccc6)c(S(=O)(=O)C(F)(F)F)c5)cc4)CC3)c2)c(-c2ccc(Cl)cc2)n1C(C)C"
assay_target = "519858-162-T-J1-PDC complex spheroid growth, % test/control"
class = "NO"


====

# maps each entry to its viability, T/C
- Test system: 519858-162-T-J1-PDC complex spheroid growth, % test/control
- PROTOCOL_TEXT: Anticancer human tumor 519858-162-T-J1-PDC cell line growth inhibition [Asc];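 also: seven day drug exposure begun three days after spheroid seeding; 100% = DMSO vehicle wells and lower values mean less viable spheroid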
- CONDITION: second compound 0.316 µM; first compound 0.0316 µM; active compounds read low
OBSERVATION_TYPE: viability, T/C (%)

[[record]]
compound = "COc1c(OCCCN2CCOCC2)ccc2c3n(c(=NC(=O)c4cnc(N)nc4)nc12)CCN3 + Cc1c(S(C)(=O)=O)c(-c2cc(F)cc(N3CCN(c4ccc(NS(=O)(=O)c5ccc(NC(CCN6CCC(C(=O)OCCCP(=O)(O)O)CC6)CSc6ccccc6)c(S(=O)(=O)C(F)(F)F)c5)cc4)CC3)c2)c(-c2ccc(Cl)cc2)n1C(C)C"
value = 69.4

[[record]]
compound = "O=C(c1ccc(F)c(F)c1Nc1ccc(I)cc1F)N1CC(O)([C@@H]2CCCCN2)C1 + CNC(C)C(=O)NC1CN(S(=O)(=O)c2cccc(S(=O)(=O)N3CCC4CCC(C(=O)NC(c5ccccc5)c5ccccc5)N4C(=O)C(NC(=O)C(C)NC)C3)c2)CCC2CCC(C(=O)NC(c3ccccc3)c3ccccc3)N2C1=O"
value = 86.8

[[record]]
compound = "C#Cc1c(F)ccc2cc(O)cc(-c3ncc4c(N5CC6CCC(C5)N6)nc(OCC56CCCN5CC(F)C6)nc4c3F)c12 (stereo not drawn) + Cc1c(S(C)(=O)=O)c(-c2cc(F)cc(N3CCN(c4ccc(NS(=O)(=O)c5ccc(NC(CCN6CCC(C(=O)OCCCP(=O)(O)O)CC6)CSc6ccccc6)c(S(=O)(=O)C(F)(F)F)c5)cc4)CC3)c2)c(-c2ccc(Cl)cc2)n1C(C)C"
value = 88.2

[[record]]
compound = "O=C(c1cc(Cc2n[nH]c(=O)c3ccccc23)ccc1F)N1CCN(C(=O)C2CC2)CC1 + CNC(C)C(=O)NC1CN(S(=O)(=O)c2cccc(S(=O)(=O)N3CCC4CCC(C(=O)NC(c5ccccc5)c5ccccc5)N4C(=O)C(NC(=O)C(C)NC)C3)c2)CCC2CCC(C(=O)NC(c3ccccc3)c3ccccc3)N2C1=O"
value = 68.4

[[record]]
compound = "O=C(c1cc(Cc2n[nH]c(=O)c3ccccc23)ccc1F)N1CCN(C(=O)C2CC2)CC1 + Cc1c(S(C)(=O)=O)c(-c2cc(F)cc(N3CCN(c4ccc(NS(=O)(=O)c5ccc(NC(CCN6CCC(C(=O)OCCCP(=O)(O)O)CC6)CSc6ccccc6)c(S(=O)(=O)C(F)(F)F)c5)cc4)CC3)c2)c(-c2ccc(Cl)cc2)n1C(C)C"
value = 100

[[record]]
compound = "C=C(F)C(=O)N1CCN(c2nc(OCC3CCCN3C)nc3c2CCN(c2cccc4cccc(Cl)c24)C3)CC1CC#N (stereo not drawn) + Cc1c(S(C)(=O)=O)c(-c2cc(F)cc(N3CCN(c4ccc(NS(=O)(=O)c5ccc(NC(CCN6CCC(C(=O)OCCCP(=O)(O)O)CC6)CSc6ccccc6)c(S(=O)(=O)C(F)(F)F)c5)cc4)CC3)c2)c(-c2ccc(Cl)cc2)n1C(C)C"
value = 95.9

[[record]]
compound = "Cn1ncnc1[C@H]1c2n[nH]c(=O)c3cc(F)cc(c23)N[C@@H]1c1ccc(F)cc1 + CNC(C)C(=O)NC1CN(S(=O)(=O)c2cccc(S(=O)(=O)N3CCC4CCC(C(=O)NC(c5ccccc5)c5ccccc5)N4C(=O)C(NC(=O)C(C)NC)C3)c2)CCC2CCC(C(=O)NC(c3ccccc3)c3ccccc3)N2C1=O"
value = 64.3

[[record]]
compound = "CNC(C)C(=O)NC1CN(S(=O)(=O)c2cccc(S(=O)(=O)N3CCC4CCC(C(=O)NC(c5ccccc5)c5ccccc5)N4C(=O)C(NC(=O)C(C)NC)C3)c2)CCC2CCC(C(=O)NC(c3ccccc3)c3ccccc3)N2C1=O (stereo not drawn) + Cc1c(S(C)(=O)=O)c(-c2cc(F)cc(N3CCN(c4ccc(NS(=O)(=O)c5ccc(NC(CCN6CCC(C(=O)OCCCP(=O)(O)O)CC6)CSc6ccccc6)c(S(=O)(=O)C(F)(F)F)c5)cc4)CC3)c2)c(-c2ccc(Cl)cc2)n1C(C)C"
value = 86.8

[[record]]
compound = "C=C(F)C(=O)N1CCN(c2nc(OCC3CCCN3C)nc3c2CCN(c2cccc4cccc(Cl)c24)C3)CC1CC#N (stereo not drawn) + CNC(C)C(=O)NC1CN(S(=O)(=O)c2cccc(S(=O)(=O)N3CCC4CCC(C(=O)NC(c5ccccc5)c5ccccc5)N4C(=O)C(NC(=O)C(C)NC)C3)c2)CCC2CCC(C(=O)NC(c3ccccc3)c3ccccc3)N2C1=O"
value = 88.2

[[record]]
compound = "O=C(c1ccc(F)c(F)c1Nc1ccc(I)cc1F)N1CC(O)([C@@H]2CCCCN2)C1 + Cc1c(S(C)(=O)=O)c(-c2cc(F)cc(N3CCN(c4ccc(NS(=O)(=O)c5ccc(NC(CCN6CCC(C(=O)OCCCP(=O)(O)O)CC6)CSc6ccccc6)c(S(=O)(=O)C(F)(F)F)c5)cc4)CC3)c2)c(-c2ccc(Cl)cc2)n1C(C)C"
value = 110

[[record]]
compound = "C=CC(=O)N1CCN(c2nc(=O)n(-c3c(C)ccnc3C(C)C)c3nc(-c4c(O)cccc4F)c(F)cc23)C(C)C1 (stereo not drawn) + CNC(C)C(=O)NC1CN(S(=O)(=O)c2cccc(S(=O)(=O)N3CCC4CCC(C(=O)NC(c5ccccc5)c5ccccc5)N4C(=O)C(NC(=O)C(C)NC)C3)c2)CCC2CCC(C(=O)NC(c3ccccc3)c3ccccc3)N2C1=O"
value = 85.2

[[record]]
compound = "NC1CCC(NC2CC2c2ccccc2)CC1 (stereo not drawn) + CNC(C)C(=O)NC1CN(S(=O)(=O)c2cccc(S(=O)(=O)N3CCC4CCC(C(=O)NC(c5ccccc5)c5ccccc5)N4C(=O)C(NC(=O)C(C)NC)C3)c2)CCC2CCC(C(=O)NC(c3ccccc3)c3ccccc3)N2C1=O"
value = 92.1

[[record]]
compound = "COc1c(OCCCN2CCOCC2)ccc2c3n(c(=NC(=O)c4cnc(N)nc4)nc12)CCN3 + CNC(C)C(=O)NC1CN(S(=O)(=O)c2cccc(S(=O)(=O)N3CCC4CCC(C(=O)NC(c5ccccc5)c5ccccc5)N4C(=O)C(NC(=O)C(C)NC)C3)c2)CCC2CCC(C(=O)NC(c3ccccc3)c3ccccc3)N2C1=O"
value = 78.3


The measurements presented in this section are drawn from PubChem BioAssay AID1963421.
